# System: Saccharomyces cerevisiae;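 note: PSI is a weighted mean of sequencing reads over stability bins, variants kept only with over 10 reads, mCherry proximal and sfGFP distal, peptide attached via GGGS linker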
# TEST_SUMMARY: protein stability index of tFT-peptide fusion (C-terminal peptide) (PSI (0-1 scale)); higher = more stable (slower turnover)
# MEASUREMENT_PARAMETERS: genetic background: wild type; temperature: 37 C
Entries get a class label from measured protein stability index. See ranges: range A (below 0.3), range B (0.3 to below 0.5), range C (0.5 or more)

Problem: # bin lookup: classify CGGVQVWRVKVV by its protein stability index
Solution: range B

Problem: # bin lookup: classify ILRIYIPRWRRQ by its protein stability index
Solution: range B

Problem: # bin lookup: classify PPTLLPPLHPAP by its protein stability index
Solution: range C

Problem: # bin lookup: classify PPPAPPLSMPAP by its protein stability index
Solution: range C

Problem: # bin lookup: classify LGSYVWVFVYFW by its protein stability index
Solution: range A

Problem: # bin lookup: classify RLFSPPVLATPS by its protein stability index
Solution: range C

Problem: # bin lookup: classify LLSYMVSLVVYL by its protein stability index
Solution: range A

Problem: # bin lookup: classify LFTRWSILFKLF by its protein stability index
Solution: range A

Problem: # bin lookup: classify VLRCIWLCFLSV by its protein stability index
Solution: range C

Problem: # bin lookup: classify RFLPYLPTPLSP by its protein stability index
Solution: range C

Problem: # bin lookup: classify SVPCWVFLFCLA by its protein stability index
Solution: range B

Problem: # bin lookup: classify DLQTVGLTRFIV by its protein stability index
Solution: range B

Problem: # bin lookup: classify VSCLDLCFVISR by its protein stability index
Solution: range C

Problem: # bin lookup: classify LSRRFSLALFWT by its protein stability index
Solution: range B

Problem: # bin lookup: classify FMVYRIHSSAVM by its protein stability index
Solution: range A

Problem: # bin lookup: classify PLSPTNLSRLLS by its protein stability index
Solution: range C

Problem: # bin lookup: classify YVCLVWHRNFFS by its protein stability index
Solution: range A

Problem: # bin lookup: classify GFLAVTVACVWR by its protein stability index
Solution: range A

Problem: # bin lookup: classify CWYVCSFWPYVV by its protein stability index
Solution: range A

Problem: # bin lookup: classify WYYTWKQLVMIV by its protein stability index
Solution: range A

Problem: # bin lookup: classify FAVTRVHLACWG by its protein stability index
Solution: range B

Problem: # bin lookup: classify VFLYVYAVWFLV by its protein stability index
Solution: range A

Problem: # bin lookup: classify LVSSYVPFFFAL by its protein stability index
Solution: range B

Problem: # bin lookup: classify WISDRCPSVLCY by its protein stability index
Solution: range A

Problem: # bin lookup: classify MVAHTVRVKCGI by its protein stability index
Solution: range C

Problem: # bin lookup: classify FCCFFVHMSFFL by its protein stability index
Solution: range B

Problem: # bin lookup: classify LSASFYFVFFSN by its protein stability index
Solution: range B

Problem: # bin lookup: classify RLIAVAGVVVVA by its protein stability index
Solution: range C

Problem: # bin lookup: classify FMRKLVVLVVLG by its protein stability index
Solution: range B

Problem: # bin lookup: classify KKKKQKKNNNKR by its protein stability index
Solution: range C

Problem: # bin lookup: classify RKGQNKKRNKIY by its protein stability index
Solution: range C

Problem: # bin lookup: classify TNEWMDVKVFCY by its protein stability index
Solution: range C

Problem: # bin lookup: classify KFRGMTLRNKVC by its protein stability index
Solution: range A

Problem: # bin lookup: classify GTVRSLLKWRCS by its protein stability index
Solution: range B

Problem: # bin lookup: classify FPGPPSPPPSYF by its protein stability index
Solution: range C

Problem: # bin lookup: classify AQCRGGGLSGVG by its protein stability index
Solution: range C
